src = ChEMBL document CHEMBL1123886

- Test system: P388/ADR
- Test name: Percent increase in life span, of the drug-treated tumor-bearing animals vs nontreated tumor-bearing controls with P388/ADR cells.
- Type: functional, Mus musculus
Entries and their ILS max values follow.
// keep it numeric: no unit symbol after the value

State its ILS max on P388/ADR: "CNc1cc(NC(=O)OC)ccc1Nc1c2ccccc2nc2ccccc12"
50

Return ILS max measured with P388/ADR given this compound: "CNc1cc(NC(=O)OC)ccc1Nc1c2ccccc2nc2cc(Cl)ccc12"
35

Give the reported ILS max for "CNC(=O)c1cccc2c(Nc3ccc(NC(=O)OC)cc3NC)c3cccc(C)c3nc12" (system: P388/ADR).
35

Test system P388/ADR; read-out ILS max; what value for "CN(C)c1cc(NS(C)(=O)=O)ccc1Nc1c2ccccc2nc2ccccc12" ?
41

Query the reported ILS max for P388/ADR; item: "CNc1cc(NC(=O)OC)ccc1Nc1c2ccccc2nc2c(Cl)cccc12"
22

* * *

Measured ILS max by item
- System: P388/ADR
- Test name: Percent increase in life span, of the drug-treated tumor-bearing animals vs nontreated tumor-bearing controls with P388/ADR cells.
- Assay type: functional, Mus musculus
Keep the answer to the number alone.

Record excerpt, results attached:
CNc1cc(NC(=O)OC)ccc1Nc1c2ccccc2nc2cc(OC)ccc12 : 89
CNc1cc(NC(=O)OC)ccc1Nc1c2ccc(C)cc2nc2c(C)cccc12 : 33
CNc1cc(NC(=O)OC)ccc1Nc1c2ccc(Cl)cc2nc2c(OC)cccc12 : 73
CNc1cc(NC(=O)OC)ccc1Nc1c2ccccc2nc2c(OC)cccc12 : 35

Let's switch to this compound now.
So what's the measured ILS max for this one? "CNc1cc(NC(=O)OC)ccc1Nc1c2ccc(C)cc2nc2c(OC)cccc12"
57

* * *

Entries and their measured Rm follow.
- Test name: Lipophilicity (Rm).
- Assay type: physicochemical
Just the number.

Solved cases below.
CNc1cc(NC(=O)OC)ccc1Nc1c2ccccc2nc2cc(F)ccc12 : 0.63
COC(=O)Nc1ccc(Nc2c3ccccc3nc3ccccc23)c(N(C)C)c1 : 0.56
CNc1cc(NC(=O)OC)ccc1Nc1c2ccccc2nc2c(C(N)=O)cccc12 : 0.06
COc1cc(NC(C)=O)ccc1Nc1c2ccccc2nc2ccccc12 : 0.3
CNc1cc(NC(=O)OC)ccc1Nc1c2ccc(Br)cc2nc2c(OC)cccc12 : 0.55

Field request: Rm | item: "CNC(=O)c1cccc2c(Nc3ccc(NC(=O)OC)cc3NC)c3cccc(OC)c3nc12"
0.45

Entry "CNc1cc(NC(=O)OC)ccc1Nc1c2ccc(Cl)cc2nc2c(OC)cccc12" : reported Rm = ?
0.54

* * *

- Test name: Lipophilicity (Rm).
- Type: physicochemical
# key: entry, value: Rm
No unit in the answer, please; the number alone is enough.

Guide cases for Rm, answers given:
CNc1cc(NP(=O)(OC)OC)ccc1Nc1c2ccccc2nc2ccccc12 : 0.32
CNc1cc(NC(=O)OC)ccc1Nc1c2ccc(Cl)cc2nc2c(C)cccc12 : 0.67
CNc1cc(NC(=O)OC)ccc1Nc1c2ccccc2nc2cc(Br)ccc12 : 0.7
CNc1cc(NC(=O)OC)ccc1Nc1c2ccc(Br)cc2nc2c(C)cccc12 : 0.69

Switching to the query record.
Need Rm, item "CNc1cc(NC(=O)OC)ccc1Nc1c2ccccc2nc2cc(OC)ccc12"
0.45

* * *

- Test system: poly[d(A-T)]
- Test name: Binding constant for poly[d(A-T)] by ethidium bromide displacement
Listed here are compounds together with their documented Log K.
Could you respond with only the numeric value?

# annotated cases, reported Log K shown
CNc1cc(NC(=O)OC)ccc1Nc1c2ccccc2nc2cc(Cl)ccc12 : 6.13
CNc1cc(NC(=O)OC)ccc1Nc1c2ccccc2nc2c(F)cccc12 : 5.82
COc1cc(NC(C)=O)ccc1Nc1c2ccccc2nc2ccccc12 : 6.1
COC(=O)Nc1ccc(Nc2c3ccccc3nc3ccccc23)c(N(C)C)c1 : 5.88

Value lookup for Log K; key = "CNc1cc(NC(=O)OC)ccc1Nc1c2ccccc2nc2c(C(N)=O)cccc12"
6

* * *

- Test name: Lipophilicity (Rm).
- Assay type: physicochemical
The following compounds are shown together with reported Rm values.

CNc1cc(NC(=O)OC)ccc1Nc1c2ccccc2nc2ccccc12 : 0.51
CNc1cc(NC(=O)OC)ccc1Nc1c2ccc(C)cc2nc2c(C)cccc12 : 0.51
COC(=O)Nc1ccc(Nc2c3ccccc3nc3ccccc23)c(OC)c1 : 0.5

Reported Rm, compound "CNC(=O)c1cccc2c(Nc3ccc(NC(=O)OC)cc3NC)c3cccc(C)c3nc12" : ____
0.5

* * *

Recorded Rm, one value per entry.
- Test name: Lipophilicity (Rm).
- Assay type: physicochemical
// print number alone

CNc1cc(NC(C)=O)ccc1Nc1c2ccccc2nc2ccccc12 : 0.3

Data request, read-out Rm, for "CNc1cc(NC(=O)OC)ccc1Nc1c2ccc(F)cc2nc2c(C)cccc12"
0.52

What value of measured Rm is listed for "CNc1cc(NC(=O)OC)ccc1Nc1c2ccccc2nc2c(C)cccc12" ?
0.56
